measuredTarget: CXCR3 (Macaca fascicularis)
Sequence (A0A2K5UV19 entry or part of it): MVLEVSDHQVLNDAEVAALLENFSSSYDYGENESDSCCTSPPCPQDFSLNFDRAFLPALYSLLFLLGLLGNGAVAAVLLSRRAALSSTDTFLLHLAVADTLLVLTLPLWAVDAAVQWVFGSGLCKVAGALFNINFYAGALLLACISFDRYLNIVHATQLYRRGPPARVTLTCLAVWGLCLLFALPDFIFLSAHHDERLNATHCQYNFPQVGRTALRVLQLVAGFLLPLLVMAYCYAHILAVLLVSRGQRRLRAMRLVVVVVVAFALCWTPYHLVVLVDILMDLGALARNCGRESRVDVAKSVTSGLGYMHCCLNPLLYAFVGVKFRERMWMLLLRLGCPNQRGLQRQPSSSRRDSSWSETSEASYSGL
assayProcedure: functional cellular assay measuring calcium flux in CXCR3 transfected cells (block of CXCR3/IP-10 interaction)
statedConditions: IP-10 induced intracellular calcium flux; Cyno-CHO cells stably expressing recombinant CXCR3 and G-alpha-16
Protocol: Compounds are assessed for the ability to block the interaction of CXCR3 and IP-10 in a functional cellular assay measuring calcium flux in CXCR3 transfected cells. […] Test compounds are dissolved in DMSO and diluted to 1.045 mM in DMSO. […] Intracellular calcium flux is recorded on the HAMAMTSU FDSS6000, using excitation at 480 nm and emission at 540 nm. Data are analyzed using Activity Base software. […]
pIC50: −log10 of the molar value.
assayReadout: pIC50

So for COc1cc(NC(=O)c2cc(F)ccc2N2CCN(C(=O)Cn3nc(C)cc3C)CC2)ccn1 , the logged pIC50 turned out to be 8.01

So for O=C(Nc1ccncc1)c1ccccc1N1CCN(C(=O)Cc2coc3ccccc23)CC1 , the logged pIC50 turned out to be 7.99

So for Cc1cc(C)n(CC(=O)N2CCN(c3ccccc3C(=O)Nc3cc(CC(C)(C)C)no3)CC2)n1 , the logged pIC50 turned out to be 8.02
